# key: entry, value: melting point

1. NC(C(=O)O)c1cccs1 (configuration not stated) | 208 to 210 °C
2. C=CCn1cnc(-c2ccccc2)c1N | 72 to 74 °C
3. Cc1cc(N)cc2[nH]ncc12 | 179 to 181 °C
4. COc1cc(C)c(N)cc1OC | 39 to 41 °C
5. Cc1c(N)cccc1CS(C)(=O)=O | 149 to 151 °C

Need melting point, item ClCc1nnnn1CC1CC1
30 to 32 °C

Param item = O=C(O)c1cccc(S(=O)(=O)N2CCCc3ccccc32)c1 ; retrieve measured melting point.
98 to 100 °C

Query: melting point; subject: Nc1nnc(-c2cccc(Br)c2)s1
216 to 218 °C

Can you share its melting point? I mean this compound: O=[N+]([O-])c1n[nH]cc1Br
193 to 195 °C

I'd like to know its melting point. The compound in question is Cc1nn(Cc2cccc(Br)c2)cc1C(=O)O
164 to 166 °C

Entry under review: NC(=O)c1ccc(=O)[nH]c1 . Reported melting point?
316 to 318 °C

Any idea what its melting point is? The compound is CCOC(=O)c1csc(CC#N)n1
77 to 79 °C

Consider the compound shown here: COc1ccc(C(=O)O)cc1S(=O)(=O)N1CCOCC1 What is its recorded melting point?
218 to 220 °C

Which melting point is listed for O=C(O)C1(c2cccs2)CCCCC1 ?
146 to 148 °C

State the recorded melting point for this entry: Cc1cccc(Cl)c1NC(=O)CBr
139 to 141 °C

What does the data say about its melting point? Entry: COc1ccc([N+](=O)[O-])cc1NS(=O)(=O)c1cc(C(=O)O)ccc1Cl
57 to 59 °C

Field request: melting point | item: Nc1ccccc1N1CCN(CCc2ccncc2)CC1
119 to 121 °C

---

MEASUREMENT NAME: melting point

Worked cases, answers included:
1. Cc1c(C(=O)O)sc2[nH]cnc(=S)c12 | 309 to 311 °C
2. COC(=O)C(CC(C)C)NC(N)=O (centres undefined) | 68 to 70 °C
3. CCS(=O)(=O)NCc1ccc(C(=O)O)cc1 | 194 to 196 °C
4. Cc1ccc(NC2C=CS(=O)(=O)C2)cc1C (centres undefined) | 177 to 179 °C
5. N#CCOc1ccc(/C=C/C(=O)O)cc1 | 214 to 216 °C
6. CC(CS(C)(=O)=O)NC1CC1 (centres undefined) | 39 to 41 °C
7. COc1ccc(Cc2nnn[nH]2)cc1F | 191 to 193 °C
8. Cc1c(C(=O)O)nnn1-c1ccccc1Cl | 165 to 167 °C

Reported melting point, compound O=C(O)c1occc1CN1C(=O)Cc2ccccc21 : ____
203 to 205 °C

// returns reported melting point for input CC(C)c1cccc(C(C)C)c1NCCO
72 to 74 °C

Requested read-out: melting point. Entry: N#Cc1c(N)nc2sc(C(=O)Nc3ccc(Br)cc3)c(N)c2c1-c1ccco1
257 to 259 °C

Fill in the blank: the reported melting point of OCCN1CCSCC1 is ____.
34 to 36 °C

Please look up its melting point: N#Cc1cc2c(nc1Cl)CCC2
126 to 128 °C

If you can, please state the reported melting point value of Cc1c(C(=O)NN)oc2ccccc12 .
139 to 141 °C

---

Listing of entries alongside the reported melting point.

1. CCCCc1c(C)nc2nc(S)nn2c1C | 248 to 250 °C
2. Cn1cc(S(N)(=O)=O)cc1C(=O)O | 202 to 204 °C
3. Cc1ccc(N)cc1N1C(=O)CCC1=O | 199 to 201 °C
4. CCCS(=O)(=O)N1CCC(N)CC1 | 49 to 51 °C
5. O=C(O)CCc1nc2ccccc2c(=O)[nH]1 | 239 to 241 °C

Any idea what its melting point is? The compound is NC(=O)NC(CC(=O)O)c1cccc(Br)c1 (stereo not given)
159 to 161 °C

Param item = N#CC(=Cc1ccco1)C(=O)O ; retrieve measured melting point.
227 to 229 °C

What value of measured melting point is listed for O=C(O)CCCCN1C(=O)C=CC1=O ?
84 to 86 °C

What does the record list as melting point for Cc1nc(-c2ccc(Cl)s2)sc1C(=O)O ?
255 to 257 °C

Look up melting point: COc1ccc(Oc2ccc(S(N)(=O)=O)cc2)cc1
169 to 171 °C

Recorded melting point for O=C(O)c1cc(COc2ccc(Cl)cc2Cl)on1 , please?
151 to 153 °C

Could you share which melting point value was measured for CCOC(=O)C(=O)c1cc(F)ccc1OC ?
49 to 51 °C

For CC(C)Oc1ccc(C#N)cc1 , what is its reported melting point?
50 to 52 °C

Form field: reported melting point of CNC1CC(=O)N(Cc2ccccc2)C1=O (stereo not given)
72 to 74 °C

---

MEASUREMENT NAME: melting point

1) O=C(O)c1cccc(S(=O)(=O)N2CCc3sccc3C2)c1 | 207 to 209 °C
2) O=Cc1cn(-c2ccccc2)nc1-c1cc2ccccc2oc1=O | 223 to 225 °C
3) CC(C)CC1NC(=O)NC1=O (configuration not stated) | 215 to 217 °C

Which melting point is listed for O=C(c1ccccc1)c1ccc(Br)cc1F ?
76 to 78 °C

For the molecule O=C1CC2CCC(C1)N2c1ccccc1 , what melting point is on record?
89 to 91 °C

Entry Nc1cc(-c2ccsc2)n[nH]1 has what melting point?
127 to 129 °C

Looking for the measured melting point of Nc1cc(S(=O)(=O)NC2CC2)ccc1F , can you help?
101 to 103 °C

Need melting point, item CC(=O)CC(=O)Nc1ccc(F)cc1
101 to 103 °C

Recorded melting point of CC(=O)N1CCC(S(=O)(=O)Cl)CC1 , please.
95 to 97 °C

// query melting point value for entry COCCn1nnnc1N
114 to 116 °C

Field request: melting point | item: O=C(CCl)NC(=O)NCC(F)(F)F
154 to 156 °C

---

List of melting point values.

Below, 5 compounds whose answers are already recorded.
1) Cc1nnnn1-c1cccc(N)c1 | 121 to 123 °C
2) Oc1cnc2cc(Cl)c(Cl)cc2n1 | 299 to 301 °C
3) O=c1onc(-c2ccccc2)n1CC1CO1 (configuration not stated) | 81 to 83 °C
4) Nc1ccccc1Sc1nncs1 | 109 to 111 °C
5) Cc1coc(-c2cc(N)ccc2C)n1 | 52 to 54 °C

Recorded melting point of O=C(O)c1ccc2c(c1)C(=O)N(C1CCCCC1)C2=O , please.
188 to 201 °C

May I ask what melting point has been recorded for COCC(C)NS(=O)(=O)c1ccc(Cl)c([N+](=O)[O-])c1 (configuration not stated) ?
209 to 211 °C

---

melting point by entry:

As a guide, the following entries are already answered.
1) NC(=NO)c1ccc(CN2CCOCC2)cc1 | 158 to 160 °C
2) CC(=O)Nc1cccc(NC(=O)C(Br)C(C)C)c1 (centres undefined) | 179 to 181 °C
3) O=C(COc1cccc2ccccc12)N1CCNCC1 | 141 to 143 °C
4) Nc1cccc(CS(=O)C2CCCCC2)c1 (centres undefined) | 88 to 90 °C
5) O=c1cc[nH]c2c(Br)cccc12 | 173 to 175 °C

Please give the measured melting point for this compound: CCC(CO)N1CCNCC1 (centres undefined)
78 to 80 °C

What value of measured melting point is listed for Nc1ccnc(Cc2ccccc2)n1 ?
143 to 145 °C

Using the record for O=C(CCl)Nc1cc(-n2cnnn2)ccc1F , report its melting point.
185 to 187 °C

Could you tell me which melting point is on file for O=S(=O)(Cl)C=Cc1ccc(Cl)cc1 ?
131 to 133 °C

---

Reported melting point values follow for various molecules

1) Brc1cccc(-n2cnnn2)c1 | 90 to 92 °C
2) O=C(O)CCN1C(=O)COc2ccccc21 | 168 to 170 °C
3) O=S(=O)(Cl)N1CC2CCC1C2 (configuration not stated) | 47 to 49 °C
4) Nc1sc2c(c1C(=O)O)CCC2 | 147 to 149 °C

Please report the recorded melting point for CN1CC(=O)Nc2cccnc21 .
161 to 163 °C

Could you tell me which melting point is on file for O=C(O)/C=C/c1ccc(Br)s1 ?
209 to 211 °C

Quick check: melting point of CSc1cc(C(=O)O)c(Cl)cc1Cl ?
192 to 194 °C

Look up melting point for this molecule: NC(=O)c1ccccc1OCCC(=O)O
174 to 176 °C

---

MEASUREMENT NAME: melting point

// worked examples, melting point included
1. O=Cc1cc(Cl)c2ccccc2c1O | 94 to 96 °C
2. O=C(O)CCc1ccc(-c2ccccc2)o1 | 118 to 120 °C
3. Cc1cc(N)nc(C)c1Br | 147 to 149 °C

Query (compound): Cc1cc(C)c2nc(N)sc2c1 ; field requested: melting point
135 to 137 °C

If you can, please state the reported melting point value of Cc1ccc2cccnc2c1S(=O)(=O)Cl .
149 to 151 °C

Given the compound CCn1c(S)nc2cc(S(=O)(=O)N3CCOCC3)ccc21 , what is its reported melting point?
227 to 229 °C

melting point lookup needed for Nc1nc(Cc2ccc(Cl)cc2Cl)cs1 , thanks.
96 to 98 °C

So what's the measured melting point for this one? N#Cc1ccc(NC(=O)CCCCl)cc1
114 to 116 °C

Form field: reported melting point of O=C1CCCOc2cc(F)ccc21
37 to 39 °C

Using the record for Oc1ccccc1-c1ccn[nH]1 , report its melting point.
95 to 97 °C
